experiment: Tamper resistance: percent of OC released under tampering conditions, LC-MS/MS; type: physicochemical; settings: 5% Bicarbonate, RT, 1 hour
quantity-name: percent of OC released (%)
The reply should be a number in %, with the unit left off.

Completed entries (count: 2):
- molecule: "COc1ccc2c3c1O[C@H]1C(OC(=O)c4ccccc4O)=CC[C@@]4(O)[C@@H](C2)N(C)CC[C@]314 [Conjugate 2-OH-Bz-OC]"
  units-of-measure: "%"
  meas-value: 5
- molecule: "COc1ccc(C(=O)OC2=CC[C@@]3(OC(=O)c4ccc(OC)cc4)[C@H]4Cc5ccc(OC)c6c5[C@@]3(CCN4C)[C@H]2O6)cc1 [(4-MeO-Bz)2-OC]"
  units-of-measure: "%"
  meas-value: 0

Now turn to the next molecule.
Reported percent of OC released, molecule COc1ccc2cc(C(C)C(=O)OC3=CCC4(O)C5Cc6ccc(OC)c7c6C4(CCN5C)C3O7)ccc2c1 (stereo not drawn) [Naprox-OC] : ____ 0
